test system: MDR1; experiment: MDCK-MDR1 permeability assay (BBB penetration potential); type: in vitro ADME; conditions: dog, MDCK-MDR1, pH 7.4, MDCK-MDR1: Papp B-A
Recorded measurements of Papp B→A at 120 min, 5 μM, one per entry
// units = nm/s; emit number, no label

Field: example entries. Status: answers known.
Query: If you can, please state the reported Papp B→A at 120 min, 5 μM value of C[C@@]12CCC[C@@](C)(N1)[C@@H](F)[C@@H](Oc1ccc(-c3ccc(C#N)cc3O)nn1)C2 (single isomer, unassigned) [145-ENT2] .
Result: 589

Query: Form field: reported Papp B→A at 120 min, 5 μM of Cn1cc(-c2ccc(-c3ccc(O[C@@H]4C[C@H]5CCC[C@H](N5)[C@@H]4F)nn3)c(O)c2)c(F)n1 (single isomer, unassigned) [109-ENT1]
Result: 189

Consider the additional compound presented here.
Query: Suppose we examine the compound Cc1cc(-c2ccc(-c3ccc(O[C@@H]4C[C@H]5CCC[C@H](N5)[C@@H]4F)nn3)c(O)c2)co1 (single isomer, unassigned) [98-ENT1] ; what Papp B→A at 120 min, 5 μM value has been reported?
Result: 13.9

----------
system: mHTT protein; experiment: mHTT protein assay (2B7-MW1, Mesoscale Discovery); type: cell-based, human; settings: GM04724 (CAG 70/20) Huntington's disease patient lymphoblast cells, 48 hours, 2B7-MW1 MSD; read-out: HTT Potency - Protein EC50 mHTT (average)
pEC50: −log10 of the molar value.
Property: pEC50; scope: individual molecules

Query: Recall the recorded pEC50 for Cc1nnc(-c2ccc(-c3ccc(O[C@@H]4C[C@H]5CCC[C@H](N5)[C@@H]4F)nn3)c(O)c2)o1 (single isomer, unassigned) [94-ENT1] with mHTT protein and state it.
Result: 6.30 to 7.00

Query: Any idea what pEC50 came out for Oc1cc(-c2nncs2)ccc1-c1ccc(O[C@@H]2C[C@H]3CCC[C@H](N3)[C@@H]2F)nn1 (single isomer, unassigned) [116-ENT1] on mHTT protein?
Result: 7.30 to 7.80

Query: Test system mHTT protein; read-out pEC50; what value for Oc1cc(-n2ccc(F)n2)ccc1-c1ccc(O[C@@H]2C[C@H]3CCC[C@H](N3)[C@@H]2F)nn1 (single isomer, unassigned) [115-ENT1] ?
Result: 7.30 to 7.80

Query: Short answer please: pEC50, mHTT protein, entry C[C@]12CC[C@](C)(N1)[C@H](F)[C@H](Oc1ccc(-c3ccc(-n4cccn4)cc3O)nn1)C2 (single isomer, unassigned) [153-ENT1]
Result: 7.00 to 7.29

Query: API: value(readout=pEC50, system=mHTT protein) for record Oc1cc(-n2ccnn2)ccc1-c1ccc(O[C@@H]2C[C@H]3CCC[C@H](N3)[C@@H]2F)nn1 (single isomer, unassigned) [69-ENT1]
Result: 6.30 to 7.00

Query: Recall the recorded pEC50 for Oc1cc(-c2cn[nH]c2)ccc1-c1ccc(O[C@@H]2C[C@H]3CC[C@H](N3)[C@@H]2F)nn1 (single isomer, unassigned) [42-ENT2] with mHTT protein and state it.
Result: 7.82 to 11.00

----------
system: Huntingtin (HTT) transcripts; assay: Quantitative splicing assay (HTT), qPCR; format: cell-based; conditions: Homo sapiens; GM04724 (CAG 70/20) Huntington's disease patient lymphoblasts, 24 h, qPCR HTTex49_50; read-out: HTT Potency - Splicing: E49-50 EC50 (average)
pEC50: −log10 of the molar value.
List of pEC50 values.

Query: What measured pEC50 goes with Oc1cc(-c2cn[nH]c2)ccc1-c1ccc(O[C@H]2C[C@@H]3CC[C@@H](N3)[C@H]2F)nn1 (single isomer, unassigned) ?
Result: 7.82 to 11.00

Query: What value of measured pEC50 is listed for Oc1cc(-c2cn[nH]c2)ccc1-c1ccc(O[C@@H]2C[C@H]3CC[C@H](N3)[C@H]2F)nn1 (single isomer, unassigned) ?
Result: 7.30 to 7.80

Query: Fill blank: measured pEC50 of the molecule O=c1cc(-c2ccc(-c3ccc(O[C@@H]4C[C@H]5CCC[C@H](N5)[C@@H]4F)nn3)c(O)c2)cc[nH]1 (single isomer, unassigned) is ____.
Result: 6.30 to 7.00

Query: I'd like to know its pEC50. The molecule in question is Cn1ccc(-c2ccc(-c3ccc(O[C@H]4C[C@]5(C)CCC[C@@](C)(N5)[C@H]4F)nn3)c(O)c2)cc1=O (single isomer, unassigned)
Result: 7.00 to 7.29

Query: I would be grateful if you could share the reported pEC50 for Cn1ccc2cc(-c3ccc(O[C@@H]4C[C@H]5CCC[C@H](N5)[C@@H]4F)nn3)c(O)cc2c1=O (single isomer, unassigned) .
Result: 6.30 to 7.00

Query: I have this molecule here, Cn1c(=O)oc2cc(-c3ccc(O[C@H]4C[C@@H]5CCC[C@@H](N5)[C@H]4F)nn3)c(O)cc21 (single isomer, unassigned) , and I need its recorded pEC50.
Result: 5.00 to 6.30

Query: What value of pEC50 has been reported for the following molecule? Cn1ccc(-c2cc(O)c(-c3ccc(O[C@H]4C[C@@H]5CCC[C@@H](N5)[C@H]4F)nn3)cc2F)cc1=O (single isomer, unassigned)
Result: 7.30 to 7.80

Query: # input molecule: Oc1cc(-c2nnco2)ccc1-c1ccc(O[C@@H]2C[C@H]3CCC[C@H](N3)[C@@H]2F)nn1 (single isomer, unassigned) ; wanted: its pEC50
Result: 6.30 to 7.00

Query: // lookup pEC50 for Cn1c(=O)oc2cc(-c3ccc(O[C@@H]4C[C@H]5CCC[C@H](N5)[C@@H]4F)nn3)c(O)cc21 (single isomer, unassigned)
Result: 6.30 to 7.00

Query: Fill in: pEC50 of Cn1cc(-c2cc(O)c(-c3ccc(O[C@H]4C[C@@H]5CCC[C@@H](N5)[C@H]4F)nn3)cc2F)cn1 (single isomer, unassigned) is ___
Result: 7.82 to 11.00

---
Query: Which pEC50 is reported for this molecule? Cn1ccc2cc(-c3ccc(O[C@H]4C[C@@H]5CC[C@@H](N5)[C@H]4F)nn3)c(O)cc2c1=O (single isomer, unassigned)
Result: 6.30 to 7.00

Query: Look up pEC50 for this molecule: Cn1cc(-c2ccc(-c3ccc(O[C@H]4C[C@H]5CCC[C@H](N5)[C@@H]4F)nn3)c(O)c2)cn1 (single isomer, unassigned)
Result: 5.00 to 6.30
